- System: OVCAR-4 ovarian
- assay-summary: NCI tumour cell line growth inhibition, 48 h
quantity: TGI

molecule: [C-]#[N+][C@]12C(=O)[C@H](CCC1(C)C)C(C)(C)[C@H]1C(=O)N(C)c3cccc2c31
quantity: TGI
assay-value: > 100 µM

molecule: COC(=S)OC1CC(n2cnc3c(N)ncnc32)OC1CO[Si](C)(C)C(C)(C)C (stereo not drawn)
quantity: TGI
assay-value: 44 µM

molecule: Cc1ccccc1NC(=O)CC(=O)N1N=C(N2c3ccccc3Sc3ccccc32)CC1c1ccccc1 (stereo not drawn)
quantity: TGI
assay-value: > 100 µM

molecule: CCCCCCNc1nc(N2CCOCC2)c2[nH]c(NCCCCCC)nc2n1
quantity: TGI
assay-value: 2.87 µM

molecule: CCNc1nc2c(ncn2C2CC(O)C(COP(=O)(O)O)O2)c(=O)[nH]1 (stereo not drawn)
quantity: TGI
assay-value: > 100 µM

molecule: O=C(O)c1cc(Cc2ccc(O)c(C(=O)O)c2)ccc1O (tested in a mixture with another compound)
quantity: TGI
assay-value: 29.2 µM

molecule: COC(=O)/C(=C/c1ccc(OC)cc1)NC(=O)c1ccccc1
quantity: TGI
assay-value: > 100 µM

molecule: Cc1nc2cc(Nc3nc(Nc4ccc(F)cc4)nc(N4CCN(C)CC4)n3)ccc2n1Cc1ccccc1
quantity: TGI
assay-value: 5.87 µM
